Answer each item with its documented viability, T/C.
- System: 171881-019-R-J1-PDC tumor spheroids, viability
- TEST METHOD NOTES: Anticancer human tumor 171881-019-R-J1-PDC patient-derived invasive breast carcinoma cell line growth inhibition [GQUAD]
- CONDITION DESCRIPTION: second compound 0.316 µM; first compound 0.1 µM; hits give low values; spheroids with HUVEC and MSC
Answers are plain numbers, in %.

Some compounds with known viability, T/C results, for comparison:
Ask: Please list viability, T/C recorded for the compound CC(C)(O)C1CCC(Nc2ccc3ncc(-c4cccc(C(F)(F)F)c4)n3n2)CC1 (stereo not given) + Cc1cnc(CNC(=O)c2c(=O)c3ccc(N4CCCN(C)CC4)nc3n3c2sc2ccccc23)cn1
Result: 76.7

Ask: Complete the entry with viability, T/C for CC1COCCN1c1cc(C2(S(C)(=N)=O)CC2)nc(-c2ccnc3[nH]ccc23)n1 (stereo not given) + Cc1cnc(CNC(=O)c2c(=O)c3ccc(N4CCCN(C)CC4)nc3n3c2sc2ccccc23)cn1
Result: 80.5

Ask: Supply recorded viability, T/C for CC(C)n1c(=O)n(C)c2cnc3cc(F)c(-c4ccc(OCCCN5CCCCC5)nc4)cc3c21 + CN(C)c1ccc(Nc2c3ccc(NC(=O)CCN4CCCC4)cc3nc3cc(NC(=O)CCN4CCCC4)ccc23)cc1 here.
Result: 79.6

The following compounds each have a reported value; give each one's viability, T/C.
1. C=CCn1c(=O)c2cnc(Nc3ccc(N4CCN(C)CC4)cc3)nc2n1-c1cccc(C(C)(C)O)n1 + CN(C)c1ccc(Nc2c3ccc(NC(=O)CCN4CCCC4)cc3nc3cc(NC(=O)CCN4CCCC4)ccc23)cc1
2. O=c1[nH]cc(F)c(=O)[nH]1 + Cc1cnc(CNC(=O)c2c(=O)c3ccc(N4CCCN(C)CC4)nc3n3c2sc2ccccc23)cn1
3. COc1ncnc(C2CC2)c1-c1ncc2cnn(Cc3ccc(-c4nc(C(F)(F)F)cn4C(C)C)cc3)c2n1 + Cc1cnc(CNC(=O)c2c(=O)c3ccc(N4CCCN(C)CC4)nc3n3c2sc2ccccc23)cn1
4. CC1COCCN1c1cc(C2(O)CC3CCC(C2)O3)c2cnn(-c3ccn[nH]3)c2n1 (stereo not given) + CN(C)c1ccc(Nc2c3ccc(NC(=O)CCN4CCCC4)cc3nc3cc(NC(=O)CCN4CCCC4)ccc23)cc1
5. CC1COCCN1c1cc(-c2ccnn2C)c2ccnc(-c3ccn[nH]3)c2n1 (stereo not given) + CN(C)c1ccc(Nc2c3ccc(NC(=O)CCN4CCCC4)cc3nc3cc(NC(=O)CCN4CCCC4)ccc23)cc1
6. Nc1ccn(C2OC(CO)C(O)C2(F)F)c(=O)n1 (stereo not given) + Cc1cnc(CNC(=O)c2c(=O)c3ccc(N4CCCN(C)CC4)nc3n3c2sc2ccccc23)cn1
7. O=C(NO)c1cnc(N2CCN(S(=O)(=O)c3ccc4ccccc4c3)CC2)nc1 + Cc1cnc(CNC(=O)c2c(=O)c3ccc(N4CCCN(C)CC4)nc3n3c2sc2ccccc23)cn1

Result:
[38.4, 71.2, 74.3, 13.6, 31.6, 36.2, 61.7]

###

Record form. Attribute: viability, T/C. Fill in for each entry.
- Tested on: 171881-019-R-J1-PDC tumor spheroids, viability
- TEST METHOD NOTES: Anticancer human tumor 171881-019-R-J1-PDC cell line growth inhibition [GQUAD];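 further: spheroids exposed to compounds for 7 days; 100% = DMSO vehicle control viability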
- CONDITION DESCRIPTION: second compound 0.316 µM; first compound 1 µM; hits give low values; spheroids with HUVEC and MSC
Numbers only, in %.

Worked examples follow.
Ask: State its viability, T/C: COc1cccc2c1C(=O)c1c(O)c3c(c(O)c1C2=O)CC(O)(C(=O)CO)CC3OC1CC(N)C(O)C(C)O1 (stereo unspecified) + Cc1cnc(CNC(=O)c2c(=O)c3ccc(N4CCCN(C)CC4)nc3n3c2sc2ccccc23)cn1
Result: 11.7

Ask: State its viability, T/C: Nc1ccn(C2OC(CO)C(O)C2(F)F)c(=O)n1 (stereo unspecified) + CN(C)c1ccc(Nc2c3ccc(NC(=O)CCN4CCCC4)cc3nc3cc(NC(=O)CCN4CCCC4)ccc23)cc1
Result: 38.5

Ask: Consider the compound CC1COCCN1c1cc(C2(S(C)(=N)=O)CC2)nc(-c2ccnc3[nH]ccc23)n1 (stereo unspecified) + CN(C)c1ccc(Nc2c3ccc(NC(=O)CCN4CCCC4)cc3nc3cc(NC(=O)CCN4CCCC4)ccc23)cc1 and give its recorded viability, T/C.
Result: 41.6

Ask: Respond only with viability, T/C recorded for CC(C)(O)C1CCC(Nc2ccc3ncc(-c4cccc(C(F)(F)F)c4)n3n2)CC1 (stereo unspecified) + Cc1[nH]c2ccc(F)cc2c1-c1nc2c3cccnc3c3ncccc3c2[nH]1
Result: 60

Ask: Provide viability, T/C value for the following compound: COc1cccc2c1C(=O)c1c(O)c3c(c(O)c1C2=O)CC(O)(C(=O)CO)CC3OC1CC(N)C(O)C(C)O1 (stereo unspecified) + CN(C)c1ccc(Nc2c3ccc(NC(=O)CCN4CCCC4)cc3nc3cc(NC(=O)CCN4CCCC4)ccc23)cc1
Result: 10.7

# context switch: different compound, same viability, T/C
Ask: // Input: COc1ncnc(C2CC2)c1-c1ncc2cnn(Cc3ccc(-c4nc(C(F)(F)F)cn4C(C)C)cc3)c2n1 + Cc1cnc(CNC(=O)c2c(=O)c3ccc(N4CCCN(C)CC4)nc3n3c2sc2ccccc23)cn1 . Output its viability, T/C only.
Result: 65.8

Measured values drawn from PubChem BioAssay AID2060498 for this set.
